Target: KRas G12C mutant (Homo sapiens, UniProt P01116, G12C)
Construct: made in house
Experiment: Ras GTP binding domain inhibition assay (labeled-GTP competition, cell-free)
Details: with SOS, read-out: KRas G12C mutant + SOS: % inh.
Description: This is a competitive binding assay. It involves the immobilization of a protein on solid phase, interaction with a small molecule drug candidate, and then competitive binding with a labeled native GTP or GDP ligand. […] The small GTPases proteins: KRas wild type. KRas Q61H mutant, KRas G12C mutant, KRas G12D mutants, Rac-1, and Rho-A were expressed as His-tagged proteins. In addition, the Guanosine nucleotide Exchange Factor (GEF) Sos protein (residues 556-1049) was expressed as a His-tagged protein. […]
result_type: inhibition at 20 µM

These solved cases illustrate the format of a correct answer.
compound	target_of_assay	inhibition at 20 µM
Cc1c(-c2ccn(C(C)C)n2)sc2nc(-c3nccn3C)nc(NCCc3cn(C)cn3)c12	KRas G12C mutant (Homo sapiens, UniProt P01116, G12C)	76 to 100%
Oc1nc(-c2ccccn2)nc2c(-c3ncccc3F)csc12	KRas G12C mutant (Homo sapiens, UniProt P01116, G12C)	76 to 100%
Cc1c(-c2ccn(C(C)C)n2)sc2nc(-c3nccn3C)nc(NC3CCOC3)c12 (racemic)	KRas G12C mutant (Homo sapiens, UniProt P01116, G12C)	76 to 100%
COC[C@@H]1CC[C@@H]1CNc1nc(-c2nccn2C)nc2sc(-c3ccn(C(C)C)n3)c(C)c12 (racemic)	KRas G12C mutant (Homo sapiens, UniProt P01116, G12C)	26 to 50%
CO[C@H]1CC[C@@H](Nc2nc(C(=O)N3CCOCC3)nc3sccc23)C1 (racemic)	KRas G12C mutant (Homo sapiens, UniProt P01116, G12C)	1 to 25%

Let us examine a further case.
# inhibition at 20 µM of COCC1CCN(c2nc(-c3nccn3C)nc3sc(-c4ccn(C(C)C)n4)c(C(F)(F)F)c23)C1 (racemic) = 51 to 75%

* * *

Target: KRas G12D mutant (Homo sapiens, UniProt P01116, G12D)
Construct: made in house
Experiment: Ras GTP binding domain inhibition assay (labeled-GTP competition, cell-free)
Details: without SOS, read-out: KRas G12D mutant: % inh.
result_type: inhibition at 20 µM

compound	target_of_assay	inhibition at 20 µM
CO[C@@H]1CC[C@H](Nc2nc(-c3nccn3C)nc3sc(-c4ccn(C(C)C)n4)c(C)c23)C1	KRas G12D mutant (Homo sapiens, UniProt P01116, G12D)	26 to 50%
COc1ccnc(Nc2nc(-c3nccn3C)nc3sc(-c4ccn(C(C)C)n4)c(C)c23)n1	KRas G12D mutant (Homo sapiens, UniProt P01116, G12D)	76 to 100%
COCCn1ccnc1-c1nc(N[C@H]2C[C@@H](OC)C2)c2c(-c3ccccc3)c(-c3ccn(C)n3)sc2n1	KRas G12D mutant (Homo sapiens, UniProt P01116, G12D)	51 to 75%
CO[C@H]1CC(Nc2nc(-c3nccn3C)nc3sc(-c4ccn(C(C)C)n4)c(C)c23)C[C@@H]1OC (racemic)	KRas G12D mutant (Homo sapiens, UniProt P01116, G12D)	51 to 75%
COCCNC(=O)c1nc(N[C@@H]2CC[C@H](OC)C2)c2ccsc2n1 (racemic)	KRas G12D mutant (Homo sapiens, UniProt P01116, G12D)	1 to 25%

# inhibition at 20 µM of CO[C@@H]1CC[C@H](Nc2nc(-c3nccn3C)nc3sc(-c4ccn(C(C)C)n4)c(-c4ccccc4)c23)C1 = 51 to 75%

# inhibition at 20 µM of CO[C@H]1CC[C@@H](Nc2nc(-c3nccn3C)nc3sccc23)C1 (racemic) = 51 to 75%

* * *

Attribute: inhibition at 20 µM
Biological target: Rho-A (Homo sapiens)
Assay: Ras GTP binding domain inhibition assay (labeled-GTP competition, cell-free)
Set-up: made in house
Details: without SOS, read-out: Rho-A: % inh.

These solved cases illustrate the format of a correct answer.
molecule	target_of_assay	inhibition at 20 µM
COC[C@@H]1CC[C@@H]1CNc1nc(-c2nccn2C)nc2sc(-c3ccn(C(C)C)n3)c(C)c12 (racemic) [Compound 63]	Rho-A (Homo sapiens)	51 to 75%
CO[C@H]1C[C@H](CNc2nc(-c3nccn3C)nc3sc(-c4ccn(C(C)C)n4)c(C)c23)C1 [Compound 48]	Rho-A (Homo sapiens)	51 to 75%
Cc1c(-c2ccn(C(C)C)n2)sc2nc(-c3nccn3C)nc(NCc3n[nH]c(=O)n3C)c12 [Compound 60]	Rho-A (Homo sapiens)	76 to 100%
CO[C@H]1CCCN(c2nc(-c3nccn3C)nc3sc(-c4ccn(C(C)C)n4)c(C)c23)C1 [Compound 49]	Rho-A (Homo sapiens)	51 to 75%
COc1nc(-c2nccn2C)nc2c(-c3ncccc3F)csc12 [Compound 95]	Rho-A (Homo sapiens)	76 to 100%
CO[C@H]1CC[C@H](Nc2nc(-c3nccn3C)nc3sc(-c4ccn(C(C)C)n4)c(C)c23)CC1 [Compound 54]	Rho-A (Homo sapiens)	51 to 75%

Test item Cc1c(-c2ccn(C(C)C)n2)sc2nc(-c3nccn3C)nc(NCCc3ncc[nH]3)c12 [Compound 53] ; Rho-A (Homo sapiens); reported inhibition at 20 µM was 76 to 100%

* * *

Target: KRas G12D mutant (Homo sapiens, UniProt P01116, G12D)
Construct: made in house
Experiment: Ras GTP binding domain inhibition assay (labeled-GTP competition, cell-free)
Settings: with SOS, read-out: KRas G12D mutant + SOS: % inh.
Attribute: inhibition at 20 µM

These solved cases illustrate the format of a correct answer.
compound	target_of_assay	inhibition at 20 µM
COC1CCCN(c2nc(-c3nccn3C)nc3sc(-c4ccn(C(C)C)n4)c(-c4ccccc4)c23)C1 (racemic)	KRas G12D mutant (Homo sapiens, UniProt P01116, G12D)	26 to 50%
CO[C@@H]1CCCN(c2nc(-c3nccn3C)nc3sc(-c4ccn(C(C)C)n4)c(C)c23)C1	KRas G12D mutant (Homo sapiens, UniProt P01116, G12D)	1 to 25%
CO[C@H]1CC[C@@H](Nc2nc(C(=O)Nc3ccccn3)nc3sccc23)C1 (racemic)	KRas G12D mutant (Homo sapiens, UniProt P01116, G12D)	1 to 25%
CO[C@H]1CC[C@@H](Nc2nc(-c3ccccn3)nc3sc(-c4ccn(C(C)C)n4)c(C)c23)C1 (racemic)	KRas G12D mutant (Homo sapiens, UniProt P01116, G12D)	51 to 75%

# inhibition at 20 µM of O=C(Nc1ccccc1)c1nc(O)c2scc(-c3ccccn3)c2n1 = 1 to 25%

# inhibition at 20 µM of COCCNC(=O)c1nc(N[C@@H]2CC[C@H](OC)C2)c2ccsc2n1 (racemic) = 1 to 25%

# inhibition at 20 µM of COCCCn1ccnc1-c1nc(O)c2scc(-c3ccccn3)c2n1 = 51 to 75%

# inhibition at 20 µM of CO[C@H]1CC[C@@H](Nc2nc(-c3nccn3C)nc3sc(-c4cn(C)cn4)c(-c4ccccc4)c23)C1 (racemic) = 76 to 100%

* * *

Tested on: MIA-PaCa-2 pancreatic cancer cell line (KRAS G12C)
Assay: Cell proliferation assay (CellTiter 96 Aqueous One)
Format: cell-based
Details: Homo sapiens, MIA PaCa-2, MIA PaCa-2
result_type: IC50

molecule	IC50
COCC1CCN(c2nc(-c3nccn3C)nc3sc(-c4ccn(C(C)C)n4)c(C(F)(F)F)c23)C1 (racemic) [Compound 74]	< 1 µM
COCCn1c(-c2nc(O)c3scc(-c4ccccn4)c3n2)nc2ccccc21 [Compound 87]	5 to 10 µM
COCC1COCCN1c1nc(-c2nccn2C)nc2sc(-c3ccn(C(C)C)n3)c(C)c12 (racemic) [Compound 41]	5 to 10 µM

# IC50 of CO[C@H]1C[C@@H](Nc2nc(-c3nccn3C)nc3sc(-c4cn(C)cn4)c(-c4ccccc4)c23)C1 [Example 2] = 1 to 4.99 µM

# IC50 of CO[C@H]1CN(c2nc(-c3nccn3C)nc3sc(-c4ccn(C(C)C)n4)c(C)c23)C[C@H]1OC [Compound 39] = 5 to 10 µM

# IC50 of CO[C@H]1CC[C@@H](Nc2nc(-c3ccccn3)nc3sc(-c4ccn(C(C)C)n4)c(C)c23)C1 (racemic) [Compound 69] = 5 to 10 µM

# IC50 of CO[C@H]1CC[C@@H](Nc2nc(-c3nccn3C)nc3sc(-c4ccn(C(C)C)n4)c(C(F)(F)F)c23)C1 (racemic) [Compound 73] = 1 to 4.99 µM

# IC50 of Cc1c(-c2ccn(C(C)C)n2)sc2nc(-c3nccn3C)nc(NCCc3nnn[nH]3)c12 [Compound 46] = > 10 µM
